What ΔTm at 250 µM was measured for each of the following?
# target: p53 Y220N mutant DBD (Homo sapiens, UniProt P04637, M133L/N239Y/N268D/V203A/Y220N)
# Construct: the mutant p53 DBD (residues 94–312) of interest; 6xHis (N, cleaved yes); lipoyl domain of dihydrolipoamide acetyltransferase (Bacillus stearothermophilus) (N, cleaved yes); made in house; host or cells: E. coli C41
# method-summary: DSF thermal shift assay, Y220N mutant
# Assay type: binding
# condition-details: 250 μM compound, Agilent MX3005P, 270 K/h, triplicate, mean ± SEM (Table 4)
Answers are plain numbers, in °C.

Example molecules with recorded ΔTm at 250 µM:
> print(dat)
                                   molecule  measurement.name  observed.measurement
1  CCn1c2ccc(CNC)cc2c2ccc(-c3ccoc3)cc21 [PK9321]     ΔTm at 250 µM                   1.4
2  CCn1c2ccc(CN(C)C)cc2c2ccc(Br)cc21 [PK9285]     ΔTm at 250 µM                   1.4
3  CNCc1ccc2c(c1)c1ccccc1n2CC(F)(F)F [PK9255]     ΔTm at 250 µM                   1.4

Now look at this one.
Q: Answer with the recorded ΔTm at 250 µM of CCn1c2ccc(CNC)cc2c2ccc(-c3cscn3)cc21 [PK9323] only.
A: 0.7

----------
# target: p53 DBD WT (stabilized M133L/V203A/N239Y/N268D) (Homo sapiens, UniProt P04637, M133L/N239Y/N268D/V203A)
# Construct: the mutant p53 DBD (residues 94–312) of interest; 6xHis (N, cleaved yes); lipoyl domain of dihydrolipoamide acetyltransferase (Bacillus stearothermophilus) (N, cleaved yes); made in house; host or cells: E. coli C41
# method-summary: DSF thermal shift assay, WT (stabilized quadruple mutant DBD)
# Assay type: binding
# condition-details: 250 μM compound, Agilent MX3005P, 270 K/h, triplicate, mean ± SEM (Table 4)
measurement-name: ΔTm at 250 µM (°C)
One number for each entry, in °C.

Example molecules with recorded ΔTm at 250 µM:
> print(dat)
                            chem.smiles  observed.measurement
1     CCn1c2ccc(CN(C)C)cc2c2ccc(Br)cc21                  -0.2
2  CCn1c2ccc(CNC)cc2c2ccc(-c3cscn3)cc21                  -0.4
3     CNCc1ccc2c(c1)c1ccccc1n2CC(F)(F)F                     0

Now look at this one.
Q: Answer with the recorded ΔTm at 250 µM of CCn1c2ccc(CNC)cc2c2ccc(-c3ccoc3)cc21 only.
A: 0.2

----------
# target: p53 Y220C mutant DBD (Homo sapiens, UniProt P04637, M133L/N239Y/N268D/V203A/Y220C)
# Construct: the mutant p53 DBD (residues 94–312) of interest; 6xHis (N, cleaved yes); lipoyl domain of dihydrolipoamide acetyltransferase (Bacillus stearothermophilus) (N, cleaved yes); made in house; host or cells: E. coli C41
# method-summary: DSF thermal shift assay, Y220C mutant
# Type: binding
# condition-details: 250 μM compound, Agilent MX3005P, 270 K/h, triplicate, mean ± SEM (Table 4), read-out: ΔTm Y220C
measurement-name: ΔTm at 250 µM (°C)
Answers are plain numbers, in °C.

Here are 4 compounds. What values of ΔTm at 250 µM were reported for them?
1. CCn1c2ccc(CN(C)C)cc2c2ccc(Br)cc21
2. CCn1c2ccc(CNC)cc2c2ccc(-c3cscn3)cc21
3. CNCc1ccc2c(c1)c1ccccc1n2CC(F)(F)F
4. CCn1c2ccc(CNC)cc2c2ccc(-c3ccoc3)cc21

A:
[2, 3.1, 1.7, 3.1]

----------
# target: p53 Y220S mutant DBD (Homo sapiens, UniProt P04637, M133L/N239Y/N268D/V203A/Y220S)
# Construct: the mutant p53 DBD (residues 94–312) of interest; 6xHis (N, cleaved yes); lipoyl domain of dihydrolipoamide acetyltransferase (Bacillus stearothermophilus) (N, cleaved yes); made in house; host or cells: E. coli C41
# method-summary: DSF thermal shift assay, Y220S mutant
# Type: binding
# condition-details: 250 μM compound, Agilent MX3005P, 270 K/h, triplicate, mean ± SEM (Table 4), read-out: ΔTm Y220S
What ΔTm at 250 µM was measured for each of the following?
Answers are plain numbers, in °C.

Example compounds with recorded ΔTm at 250 µM:
> print(dat)
                            chem.smiles  result.units  observed.measurement
1  CCn1c2ccc(CNC)cc2c2ccc(-c3cscn3)cc21            °C                   3.7
2  CCn1c2ccc(CNC)cc2c2ccc(-c3ccoc3)cc21            °C                   2.1
3     CCn1c2ccc(CN(C)C)cc2c2ccc(Br)cc21            °C                   2.1

Now look at this one.
Q: Answer with the recorded ΔTm at 250 µM of CNCc1ccc2c(c1)c1ccccc1n2CC(F)(F)F only.
A: 3.2

----------
# target: p53 Y220C mutant DBD (Homo sapiens, UniProt P04637, M133L/N239Y/N268D/V203A/Y220C)
# Construct: the mutant p53 DBD (residues 94–312) of interest; 6xHis (N, cleaved yes); lipoyl domain of dihydrolipoamide acetyltransferase (Bacillus stearothermophilus) (N, cleaved yes); made in house; host or cells: E. coli C41
# method-summary: DSF thermal shift assay, Y220C mutant
# Assay type: binding
# condition-details: 250 μM compound, 8 μM protein, 5% DMSO, Rotor-Gene 6000, 180 K/h, quadruplicate, mean ± SEM (Table 3), read-out: Y220C mutant ΔTm
What ΔTm at 250 µM was measured for each of the following?
Answers are plain numbers, in °C.

> print(dat)
                             chem.smiles                                    target  measurement.name  result.units  observed.measurement
1  CNCc1ccc2c(c1)c1ccc(Br)cc1n2CC(F)(F)F  p53 Y220C mutant DBD (Homo sapiens, UniProt P04637, M133L/N239Y/N268D/V203A/Y220C)     ΔTm at 250 µM            °C                   3.5
2   CCn1c2ccc(CNC)cc2c2ccc(-c3cccs3)cc21  p53 Y220C mutant DBD (Homo sapiens, UniProt P04637, M133L/N239Y/N268D/V203A/Y220C)     ΔTm at 250 µM            °C                   4.4
3         CCn1c2ccc(CNC)cc2c2ccc(Br)cc21  p53 Y220C mutant DBD (Homo sapiens, UniProt P04637, M133L/N239Y/N268D/V203A/Y220C)     ΔTm at 250 µM            °C                   2.4
4   CCn1c2ccc(CNC)cc2c2ccc(-c3nccs3)cc21  p53 Y220C mutant DBD (Homo sapiens, UniProt P04637, M133L/N239Y/N268D/V203A/Y220C)     ΔTm at 250 µM            °C                   3.4
5   CCn1c2ccc(CNC)cc2c2ccc(-c3cscn3)cc21  p53 Y220C mutant DBD (Homo sapiens, UniProt P04637, M133L/N239Y/N268D/V203A/Y220C)     ΔTm at 250 µM            °C                   3.1

Here are 6 compounds. What values of ΔTm at 250 µM were reported for them?
1. CCn1c2ccc(CNC)cc2c2ccc(-c3sccc3C)cc21
2. CCn1c2ccc(CNC)cc2c2ccc(-c3ccco3)cc21
3. CCn1c2ccc(CNC)cc2c2ccc(-c3cc(C)cs3)cc21
4. CCn1c2ccc(CNC)cc2c2ccc(-c3ccc(C)s3)cc21
5. CCn1c2ccc(CNC)cc2c2ccc(-c3cnoc3)cc21
6. CCn1c2ccccc2c2cc(CNC)ccc21

A:
1. 2.1
2. 3.4
3. 3.7
4. 3.7
5. 2.3
6. 1

Here are 2 compounds. What values of ΔTm at 250 µM were reported for them?
1. CNCc1ccc2c(c1)c1ccccc1n2CC(F)(F)F
2. CCOc1ccc2c3cc(CNC)ccc3n(CC)c2c1

A:
[1.7, 1.2]

----------
# target: p53 Y220N mutant DBD (Homo sapiens, UniProt P04637, M133L/N239Y/N268D/V203A/Y220N)
# Construct: the mutant p53 DBD (residues 94–312) of interest; 6xHis (N, cleaved yes); lipoyl domain of dihydrolipoamide acetyltransferase (Bacillus stearothermophilus) (N, cleaved yes)
# method-summary: Isothermal titration calorimetry, Y220N mutant
# condition-details: ITC, Nano ITC, 20 °C
measurement-name: Kd (µM)
Answers are plain numbers, in µM.

Q: Answer with the recorded Kd of CNCc1ccc2c(c1)c1ccccc1n2CC(F)(F)F only.
A: 40
